Data origin: the Deep4Chem optical property database

Overview of recorded photoluminescence quantum yield for various compounds
assay: photoluminescence quantum yield (fraction); solvent given as SMILES; settings: in C1COCCO1
Quick one: just the number, no unit, thanks!

[
  {
    "compound": "COC(=O)c1nc2cnc(N(C)C)nc2n1Cc1ccccc1",
    "photoluminescence quantum yield": 0.83
  }
]

Retrieve photoluminescence quantum yield measured for c1ccc(-c2nc3c(ccc4[nH]ccc43)o2)cc1 and print it. 0.78

Retrieve photoluminescence quantum yield measured for CN(C)c1ccc(C2=Cc3cccc[n+]3[B-](F)(F)O2)cc1 and print it. 0.794

Retrieve photoluminescence quantum yield measured for COc1ccc(C#Cc2ccc(C#N)cc2)cc1 and print it. 0.1

Retrieve photoluminescence quantum yield measured for N#C/C=C/c1ccc2ccc3cccc4ccc1c2c34 and print it. 0.63

----------
Overview of recorded photoluminescence quantum yield for various compounds
test: photoluminescence quantum yield (fraction); solvent given as SMILES; settings: in C1CCCCC1
Quick one: just the number, no unit, thanks!

[
  {
    "compound": "c1ccc(-c2nn(-c3ccccc3)c3nc4ccc(N(c5ccccc5)c5cccc6ccccc56)cc4cc23)cc1",
    "photoluminescence quantum yield": 0.57
  },
  {
    "compound": "CC(=O)c1ccc(-c2nc3ccc(N(C)C)c(Br)c3s2)cc1",
    "photoluminescence quantum yield": 0.11
  }
]

Retrieve photoluminescence quantum yield measured for C[Si](C)(c1cccc2ccccc12)[Si](C)(C)c1c2ccccc2cc2ccccc12 and print it. 0.67

Retrieve photoluminescence quantum yield measured for C(=C\c1nc2ccccc2o1)/c1ccccc1 and print it. 0.05

Retrieve photoluminescence quantum yield measured for C[Si](C)(c1cccc2ccccc12)c1c2ccccc2cc2ccccc12 and print it. 0.72

Retrieve photoluminescence quantum yield measured for Cc1ccc(C2=C3C=CC(c4ccccc4)=[N+]3[B-](F)(F)n3c2ccc3-c2ccccc2)cc1 and print it. 0.31

Retrieve photoluminescence quantum yield measured for CCCC1(CCC)c2ccccc2-c2ccc(-c3ccc(OC)cc3)cc21 and print it. 0.41

Retrieve photoluminescence quantum yield measured for COC(=O)c1nc(-c2ccc(OC)cc2)oc1C and print it. 0.55

Retrieve photoluminescence quantum yield measured for CNc1cccc2c1C(=O)c1ccccc1-2 and print it. 0.042

Retrieve photoluminescence quantum yield measured for C(#Cc1cnc(C#Cc2ccccc2)nc1)c1ccccc1 and print it. 0.0009

Retrieve photoluminescence quantum yield measured for COC(=O)c1noc(-c2ccccc2)c1Cl and print it. 0.368

----------
test: photoluminescence quantum yield (fraction); solvent given as SMILES; settings: in O
Overview of recorded photoluminescence quantum yield for various molecules
Quick one: just the number, no unit, thanks!

[
  {
    "molecule": "Cc1cn(C)c(=O)nc1-n1cncn1",
    "photoluminescence quantum yield": 0.071
  }
]

Retrieve photoluminescence quantum yield measured for CN(C)c1ccc(/C=C/C(=O)O)cc1 and print it. 0.002

Retrieve photoluminescence quantum yield measured for COCCOCCOCCOc1ccc(OCCOCCOCCOC)c(C=O)c1 and print it. 0.11

Retrieve photoluminescence quantum yield measured for O=c1oc2ccccc2cc1-c1cc2ccccc2o1 and print it. 0.15

Retrieve photoluminescence quantum yield measured for Oc1ccc(-c2ccco2)cc1-c1nc2ccccc2s1 and print it. 0.07

----------
assay: photoluminescence quantum yield (fraction); solvent given as SMILES; conditions: in ClC(Cl)Cl
# strict inequality: photoluminescence quantum yield < 0.7 yields t, everything else yields f

Illustrative cases are given below, each with its answer.
[
  {
    "compound": "CCC[Si](CCC)(CCC)c1cc2ccc3cccc4ccc(c1C(=O)NC(C)(C)C)c2c34",
    "label_value": "t"
  },
  {
    "compound": "c1ccc(C2CCN3COc4c5ccccc5c5c6c7c(c2c3c46)C(c2ccccc2)CCN7CO5)cc1 (centres undefined)",
    "label_value": "t"
  },
  {
    "compound": "CC(C)(C)c1cc(C(C)(C)C)c2oc3c(c2c1)C=CN1C(=O)C2=C4c5oc6c(C(C)(C)C)cc(C(C)(C)C)cc6c5C=CN4C(=O)C2=C31",
    "label_value": "f"
  },
  {
    "compound": "CCN(CC)c1ccc2c(-c3ccccc3C(=O)O)c3c([o+]c2c1)/C(=C/Nc1ccccc1)CCC3",
    "label_value": "t"
  },
  {
    "compound": "Cc1ccc(-n2c3ccccc3c3cc(-c4ccc5[n+](c4)[B-](F)(F)n4c-5nc5c6ccccc6c6ccccc6c54)ccc32)cc1",
    "label_value": "f"
  }
]

Next, consider the following compound.
Take the compound Cc1cc(-c2ccc(-n3c4ccccc4c4ccccc43)cc2)nc(-c2ccc(-c3ccccc3)cc2)n1 and say whether its photoluminescence quantum yield is less than 0.7. f

----------
assay: photoluminescence quantum yield (fraction); solvent given as SMILES; conditions: in CS(C)=O
Overview of recorded photoluminescence quantum yield for various molecules
Quick one: just the number, no unit, thanks!

Worked cases, answers included:
[
  {
    "molecule": "COC(=O)C(Cc1ccc2oc(-c3ccc(N(c4ccccc4)c4ccccc4)cc3)nc2c1)NC(=O)OC(C)(C)C (configuration not stated)",
    "recorded_number": 0.69
  },
  {
    "molecule": "CCCCN1/C(=C/C=C/C2=[N+](C)c3ccccc3C2(C)C)C(C)(C)c2cc(OC)ccc21",
    "recorded_number": 0.03
  },
  {
    "molecule": "CN1/C(=C/C=C(/C=C/c2sc3ccccc3[n+]2C)c2ccccc2)Sc2ccccc21",
    "recorded_number": 0.24
  },
  {
    "molecule": "CN1/C(=C/C=C(/C=C/c2sc3ccccc3[n+]2C)c2ccc(F)cc2)Sc2ccccc21",
    "recorded_number": 0.14
  }
]

Retrieve photoluminescence quantum yield measured for C=CCNS(=O)(=O)c1ccc2c(c1)C(=O)/C(=C1\Sc3ccc(S(=O)(=O)NCC=C)cc3C1=O)S2 and print it. 0.006

Retrieve photoluminescence quantum yield measured for c1ccc2c(c1)c1ccccc1c1[nH]c(-c3ccc(-c4nc5c6ccccc6c6ccccc6c5[nH]4)cc3)nc21 and print it. 0.78

Retrieve photoluminescence quantum yield measured for CCCCCCCCn1c2ccccc2c(=O)c2ccccc21 and print it. 0.66

----------
test: photoluminescence quantum yield (fraction); solvent given as SMILES; conditions: in ClC(Cl)Cl
outcome_measure: photoluminescence quantum yield
Quick one: just the number, no unit, thanks!

Worked cases, answers included:
[
  {
    "compound": "CCC1=C(C)C2=Cc3cscc3B(O)N2C1=O",
    "recorded_number": 0.2
  },
  {
    "compound": "CCC1=C(C)C(=O)n2c1cc1c(CCC(=O)OC)c(C)c(C)n1c2=O",
    "recorded_number": 0.95
  },
  {
    "compound": "CCCCCCOc1ccc(-c2cnc(-c3nnc(-c4ccc(OCCCCCC)cc4)o3)o2)cc1",
    "recorded_number": 0.49
  }
]

Now turn to the next compound.
Retrieve photoluminescence quantum yield measured for CC1(C)CCc2c(c3ccccc3c3nc4ccccc4nc23)O1 and print it. 0.17

----------
assay: photoluminescence quantum yield (fraction); solvent given as SMILES; details: in CO
Overview of recorded photoluminescence quantum yield for various compounds
Quick one: just the number, no unit, thanks!

Worked cases, answers included:
[
  {
    "smiles_string": "Clc1ccc(/C=C/c2nc3ccccc3o2)cc1",
    "photoluminescence quantum yield": 0.02
  },
  {
    "smiles_string": "Oc1cc2ccc3cc(O)cc4ccc(c1)c2c34",
    "photoluminescence quantum yield": 0.93
  },
  {
    "smiles_string": "Cc1cc2c(o1)=CC1=Cc3cc4oc(C)cc4n3[B-](F)(F)[N+]=21",
    "photoluminescence quantum yield": 0.96
  },
  {
    "smiles_string": "CCCN1/C(=C/C=C(/C=C/c2sc3ccccc3[n+]2CCC)c2ccc([N+](=O)[O-])cc2)C(C)(C)c2ccccc21",
    "photoluminescence quantum yield": 0.03
  }
]

Now turn to the next compound.
Retrieve photoluminescence quantum yield measured for CN(CCO)c1ccc(/N=N/c2ccc([N+](=O)[O-])cc2)cc1 and print it. 0.0028

----------
assay: photoluminescence quantum yield (fraction); solvent given as SMILES; conditions: in ClCCl
Overview of recorded photoluminescence quantum yield for various compounds
Quick one: just the number, no unit, thanks!

[
  {
    "compound": "CC(C)(C)NC(=O)c1cccc2ccc3c4ccc(Cl)cc4c4cc(Cl)ccc4c3c12",
    "photoluminescence quantum yield": 0.02
  },
  {
    "compound": "O=P1(c2ccccc2)C(c2ccccc2)=Cc2ccccc21 (centres undefined)",
    "photoluminescence quantum yield": 0.85
  },
  {
    "compound": "CC1=CC(C)=[N+]2C1=C(c1c3ccccc3cc3ccccc13)c1c(C)cc(C)n1[B-]2(F)F",
    "photoluminescence quantum yield": 0.072
  },
  {
    "compound": "Fc1ccc(-c2c3ccccc3nc3cc4ccccc4cc23)cc1",
    "photoluminescence quantum yield": 0.48
  }
]

Now turn to the next compound.
Retrieve photoluminescence quantum yield measured for COC(=O)c1nc2cnc(N(C)C)nc2n1Cc1ccccc1 and print it. 0.81
